# Tested on: Rattus norvegicus
# Experiment: Estrogenic activity in immature female rat assessed as uterine weight on day 4 at 10 mg/kg, po bid for 3 days (reference value: 13.6 +/- 0.8 mg)
# Assay type: functional
Consider the following molecules; for each one, report its Activity.
Quick reminder: number only, in mg, skip the unit.

// query # input molecule: COc1ccc2c(c1)OC[C@H](c1ccccc1)[C@@H]2c1ccc(OCCN2CCCC2)cc1 (relative stereo) ; wanted: its Activity
// result 50.6

// query Param item = "COc1ccc2c(c1)OC(C)(C)C(c1ccccc1)=C2c1ccc(O)cc1" ; retrieve measured Activity.
// result 49.2

// query What value of measured Activity is listed for "CCC1(CC)Oc2cc(OC)ccc2C(c2ccc(O)cc2)=C1c1ccccc1" ?
// result 39.2

// query For the molecule "COc1ccc2c(c1)OC(C)(C)[C@@H](c1ccccc1)[C@@H]2c1ccc(OCCN2CCCC2)cc1" , what Activity is on record?
// result 48.3

// query Activity value for entry CCC1(CC)Oc2cc(OC)ccc2[C@@H](c2ccc(O)cc2)[C@H]1c1ccccc1 (relative stereo)
// result 14.6

// query I would be grateful if you could share the reported Activity for "CCC1(CC)Oc2cc(OC)ccc2[C@H](c2ccc(OCCN3CCCC3)cc2)[C@H]1c1ccccc1" .
// result 46.6

// query Recorded Activity of "CCN(CC)CCOc1ccc(C2=C(c3ccccc3)C(C)(C)Oc3cc(OC)ccc32)cc1.Cl" , please.
// result 42

// query Request the reported Activity associated with "CCC1(CC)Oc2cc(OC)ccc2[C@@H](c2ccc(OCCN3CCCC3)cc2)[C@H]1c1ccccc1"
// result 16.5
